- Test system: penile corpus cavernosum smooth muscles
- protocol-notes: Relaxation of phenylephrine-contracted penile corpus cavernosum smooth muscle sections in organ bath
- Design: species or system New Zealand white rabbit
- reported-conditions: conc. 10^−4 M; section contracted with 10^−4 M phenylephrine
measure-name: Relaxation (%)
Write the quantity with the unit trailing the number.

As a guide, the following entries are already answered.
{"compound": "CC1(C)CCC2=C(O1)c1ccccc1C(=O)C2=O", "measure-name": "Relaxation (%)", "value-reported": "92%"}
{"compound": "NC(=O)c1ncn([C@@H]2O[C@H](CO)[C@@H](O)[C@H]2O)c1N [AICAR, reference compound]", "measure-name": "Relaxation (%)", "value-reported": "10%"}
{"compound": "CC(=O)OCC[N+](C)(C)C", "measure-name": "Relaxation (%)", "value-reported": "21%"}

*Q* Would you mind telling me what Relaxation (%) value was observed for `CN(C)C(=N)N=C(N)N` ?
*A* 0.1%

*Q* Would you mind telling me what Relaxation (%) value was observed for `CCCOc1ccccc1-c1nc2nn[nH]c2c(=O)[nH]1` ?
*A* 36%

The values you see were collected from patent US20120114714A1.
